Below: a set of entries, each annotated with reported IC50.
Target: C-Raf kinase (SEQ ID NO: 2) (Homo sapiens, UniProt P04049, Y340D/Y341D)
Construct: C-Raf residues 306-end; Y340D, Y341D with N-; GST (N); purchased Sigma
Sequence (P04049 307-648 Y340D/Y341D): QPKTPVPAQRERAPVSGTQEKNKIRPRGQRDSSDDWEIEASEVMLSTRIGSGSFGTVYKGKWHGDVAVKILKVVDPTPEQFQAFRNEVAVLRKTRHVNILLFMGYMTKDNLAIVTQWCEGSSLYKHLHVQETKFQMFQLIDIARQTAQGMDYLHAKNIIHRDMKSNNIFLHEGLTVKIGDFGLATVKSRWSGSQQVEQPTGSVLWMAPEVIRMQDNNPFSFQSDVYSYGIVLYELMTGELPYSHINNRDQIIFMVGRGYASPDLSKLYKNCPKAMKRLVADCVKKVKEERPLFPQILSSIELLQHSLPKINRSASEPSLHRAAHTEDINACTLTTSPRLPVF
Experiment: Biochemical assay for C-Raf (coupled pyruvate kinase/lactate dehydrogenase)
Conditions: Table 3; read-out: CRAF

recordsmiles=Cc1ccc(NC(=O)c2cc(C(F)(F)F)cnn2)cc1-c1nc(N[C@H](C)CO)cc(N2CCOCC2)n1 testedtarget="C-Raf kinase (SEQ ID NO: 2) (Homo sapiens, UniProt P04049, Y340D/Y341D)" measured="1000 to 10000 nM"
recordsmiles=Cc1ccc(NC(=O)c2cc(C(C)C)cnn2)cc1-c1cc(N[C@H](C)CO)nc(N2CCOCC2)c1 testedtarget="C-Raf kinase (SEQ ID NO: 2) (Homo sapiens, UniProt P04049, Y340D/Y341D)" measured="< 100 nM"
recordsmiles=Cc1ccc(NC(=O)c2cc(C(F)(F)F)cnn2)cc1-c1cc(OCCO)nc(N2CCOCC2)c1 testedtarget="C-Raf kinase (SEQ ID NO: 2) (Homo sapiens, UniProt P04049, Y340D/Y341D)" measured="< 100 nM"
recordsmiles=Cc1ccc(NC(=O)c2cc(C(F)(F)F)cnn2)cc1-c1cc(N[C@H](C)CO)nc(N2CCOCC2)c1 testedtarget="C-Raf kinase (SEQ ID NO: 2) (Homo sapiens, UniProt P04049, Y340D/Y341D)" measured="< 100 nM"
recordsmiles=Cc1ccc(NC(=O)c2cc(C(F)(F)F)cnn2)cc1-c1cncc(N2CCOCC2)c1 testedtarget="C-Raf kinase (SEQ ID NO: 2) (Homo sapiens, UniProt P04049, Y340D/Y341D)" measured="< 100 nM"

Q. So what's the measured IC50 for this one? "Cc1ccc(NC(=O)c2cc(C(C)(C)F)cnn2)cc1-c1cc(OCCO)nc(N2CCOCC2)c1"
A. < 100 nM

Q. So what's the measured IC50 for this one? "Cc1ccc(NC(=O)c2cc(C3CCC3)cnn2)cc1-c1cc(N[C@H](C)CO)nc(N2CCOCC2)c1"
A. < 100 nM

Q. So what's the measured IC50 for this one? "Cc1ccc(NC(=O)c2cc(C(F)(F)F)cnn2)cc1-c1cc(N2CCOCC2)nc(OCCO)n1"
A. 100 to 500 nM

---

Target: C-Raf kinase (SEQ ID NO: 2) (Homo sapiens, UniProt P04049, Y340D/Y341D)
Construct: C-Raf residues 306-end; Y340D, Y341D with N-; GST (N); purchased Sigma
Assay: Biochemical assay for C-Raf (coupled pyruvate kinase/lactate dehydrogenase)
Details: 1 mM ATP; read-out: CRAF (inhibition of biochemical activity, IC50)
pIC50: −log10 of the molar value.
Below: a set of entries, each annotated with reported pIC50.

For orientation, consider the following solved cases.
recordsmiles=Cc1ccc(NC(=O)c2cncc(Cl)c2)cc1-c1cc(N[C@H](C)CO)nc(N2CCOCC2)c1 measured="> 7.00"
recordsmiles=Cc1ccc(NC(=O)c2cncc(C(C)C)n2)cc1-c1cc(N[C@H](C)CO)nc(N2CCOCC2)c1 measured="6.30 to 7.00"
recordsmiles=Cc1ccc(NC(=O)c2cc(C(F)(F)F)cnn2)cc1-c1cncc(N2CCOCC2)n1 measured="5.00 to 6.00"

Q. Notebook: pull reported pIC50 for C-Raf kinase (SEQ ID NO: 2) (Homo sapiens, UniProt P04049, Y340D/Y341D), entry "Cc1ccc(NC(=O)c2cncc(C(C)C)c2)cc1-c1cc(N[C@H](C)CO)nc(N2CCOCC2)c1"
A. > 7.00

Q. Notebook: pull reported pIC50 for C-Raf kinase (SEQ ID NO: 2) (Homo sapiens, UniProt P04049, Y340D/Y341D), entry "Cc1ccc(NC(=O)c2cc(C3CC3)cnn2)cc1-c1ccnc(N2C[C@@H](C)O[C@@H](C)C2)c1"
A. 5.00 to 6.00

Q. Notebook: pull reported pIC50 for C-Raf kinase (SEQ ID NO: 2) (Homo sapiens, UniProt P04049, Y340D/Y341D), entry "Cc1ccc(NC(=O)c2cnc(C(C)C)nc2)cc1-c1cc(N[C@H](C)CO)nc(N2CCOCC2)c1"
A. > 7.00

Q. Notebook: pull reported pIC50 for C-Raf kinase (SEQ ID NO: 2) (Homo sapiens, UniProt P04049, Y340D/Y341D), entry "Cc1ccc(NC(=O)c2cnc(C(F)(F)F)nc2)cc1-c1cc(N[C@H](C)CO)nc(N2CCOCC2)c1"
A. 6.30 to 7.00

Q. Notebook: pull reported pIC50 for C-Raf kinase (SEQ ID NO: 2) (Homo sapiens, UniProt P04049, Y340D/Y341D), entry "Cc1ccc(NC(=O)c2cnc(Cl)nc2)cc1-c1cc(N[C@H](C)CO)nc(N2CCOCC2)c1"
A. 6.00 to 6.30

Q. Notebook: pull reported pIC50 for C-Raf kinase (SEQ ID NO: 2) (Homo sapiens, UniProt P04049, Y340D/Y341D), entry "Cc1ccc(NC(=O)c2cc(C(F)(F)F)cnn2)cc1-c1cc(N[C@H](C)CO)nc(N2CC3CC(C2)O3)c1"
A. 6.30 to 7.00

Q. Notebook: pull reported pIC50 for C-Raf kinase (SEQ ID NO: 2) (Homo sapiens, UniProt P04049, Y340D/Y341D), entry "Cc1ccc(NC(=O)c2cc(C(N)=O)cnn2)cc1-c1cc(N[C@H](C)CO)nc(N2CCOCC2)c1"
A. 6.00 to 6.30

Q. Notebook: pull reported pIC50 for C-Raf kinase (SEQ ID NO: 2) (Homo sapiens, UniProt P04049, Y340D/Y341D), entry "Cc1cc(-c2cc(NC(=O)c3cc(C4CC4)cnn3)ccc2C)cc(N2CCOCC2)n1"
A. > 7.00

Q. Notebook: pull reported pIC50 for C-Raf kinase (SEQ ID NO: 2) (Homo sapiens, UniProt P04049, Y340D/Y341D), entry "Cc1ccc(NC(=O)c2cc(C(F)(F)F)cnn2)cc1-c1cc(OCCO)nc(N2CCOCC2)c1"
A. > 7.00

Q. Notebook: pull reported pIC50 for C-Raf kinase (SEQ ID NO: 2) (Homo sapiens, UniProt P04049, Y340D/Y341D), entry "Cc1ccc(NC(=O)c2cc(C(C)C)cnn2)cc1-c1cncc(N2CCOCC2)n1"
A. 6.30 to 7.00

Q. Notebook: pull reported pIC50 for C-Raf kinase (SEQ ID NO: 2) (Homo sapiens, UniProt P04049, Y340D/Y341D), entry "Cc1ccc(NC(=O)c2cncc(C3CC3)c2)cc1-c1cc(N[C@H](C)CO)nc(N2CCOCC2)c1"
A. > 7.00

Q. Notebook: pull reported pIC50 for C-Raf kinase (SEQ ID NO: 2) (Homo sapiens, UniProt P04049, Y340D/Y341D), entry "Cc1ccc(NC(=O)c2ccc(C(F)(F)F)nn2)cc1-c1cc(N[C@H](C)CO)nc(N2CCOCC2)c1"
A. 6.00 to 6.30

Q. Notebook: pull reported pIC50 for C-Raf kinase (SEQ ID NO: 2) (Homo sapiens, UniProt P04049, Y340D/Y341D), entry "Cc1ccc(NC(=O)c2cc(Br)cnn2)cc1-c1cc(N[C@H](C)CO)nc(N2CCOCC2)c1"
A. > 7.00

Q. Notebook: pull reported pIC50 for C-Raf kinase (SEQ ID NO: 2) (Homo sapiens, UniProt P04049, Y340D/Y341D), entry "Cc1ccc(NC(=O)c2cc(C(F)(F)F)cnn2)cc1-c1cc(N[C@H](C)CO)nc(N2CCOCC2)n1"
A. 6.30 to 7.00

Q. Notebook: pull reported pIC50 for C-Raf kinase (SEQ ID NO: 2) (Homo sapiens, UniProt P04049, Y340D/Y341D), entry "CNc1cc(-c2cc(NC(=O)c3cc(C(F)(F)F)cnn3)ccc2C)cc(N2CCOCC2)n1"
A. > 7.00

Q. Notebook: pull reported pIC50 for C-Raf kinase (SEQ ID NO: 2) (Homo sapiens, UniProt P04049, Y340D/Y341D), entry "Cc1ccc(NC(=O)c2cc(C3CC3)cnn2)cc1-c1ccnc(N2CCOCC2)c1"
A. > 7.00

---

Target: B-Raf kinase (SEQ ID NO: 1) (Homo sapiens, UniProt P15056)
Construct: GST (N); purchased Sigma
Sequence (P15056 416-766): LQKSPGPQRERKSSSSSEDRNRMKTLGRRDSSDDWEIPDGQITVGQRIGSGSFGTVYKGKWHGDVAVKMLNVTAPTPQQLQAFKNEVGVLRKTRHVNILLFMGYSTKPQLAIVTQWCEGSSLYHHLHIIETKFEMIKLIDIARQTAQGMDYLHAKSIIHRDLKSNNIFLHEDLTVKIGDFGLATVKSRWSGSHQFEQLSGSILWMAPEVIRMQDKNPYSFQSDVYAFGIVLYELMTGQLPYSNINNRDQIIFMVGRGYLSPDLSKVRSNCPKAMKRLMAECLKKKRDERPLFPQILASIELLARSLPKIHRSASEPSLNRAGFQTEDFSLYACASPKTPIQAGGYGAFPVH
Assay: Biochemical assay for B-Raf (coupled pyruvate kinase/lactate dehydrogenase)
Conditions: 1 mM ATP; read-out: BRAF (inhibition of biochemical activity, IC50)
Below: a set of entries, each annotated with reported IC50.

Q. So what's the measured IC50 for this one? Cc1ccc(NC(=O)c2cc(C(F)(F)F)cnn2)cc1-c1ccnc(N2CCOC(C(F)(F)F)C2)c1 (stereo not shown) [Example 8]
A. 1000 to 10000 nM

Q. So what's the measured IC50 for this one? Cc1ccc(NC(=O)c2cc(C(C)C)cnn2)cc1-c1cccc(N2CCOCC2)c1 [Example 76]
A. 100 to 500 nM
